# System: Brontispa longissima
# Protocol text: Insecticidal activity against Brontispa longissima fifth-instar larvae fed on compound pre-treated Cocos nucifera L. leaves assessed as insect mortality at 50 ug/ml measured 12 hr after compound treatment
# Format: functional
# Experimental conditions: in Cocos nucifera
Would you kindly list mortality at 50 µg/mL for each of these molecules?
# output: bare number, implied unit %

Quote mortality at 50 µg/mL reported for C/C=C(\C)C(=O)O[C@H]1C[C@@H](OC(C)=O)[C@@]2(C(=O)OC)CO[C@H]3[C@@H](O)[C@@](C)([C@]45O[C@@]4(C)[C@@H]4C[C@H]5O[C@@H]5OC=C[C@@]54O)[C@H]4[C@]1(CO[C@]4(O)C(=O)OC)[C@@H]32 [AZADIRACHTIN A] please.
3.33

Quote mortality at 50 µg/mL reported for CCC(C)C(=O)OC1[C@@H]2CC3=C4CC(=O)O[C@@H](c5ccoc5)[C@]4(C)CCC3[C@@](C)(C2=O)[C@@H](CC(=O)OC)C1(C)C (some centres undefined) [KHAYASIN] please.
96.7

Quote mortality at 50 µg/mL reported for CC[C@H](C)C(=O)O[C@@H]1[C@H]2CC3=C4CC(=O)O[C@@H](c5ccoc5)[C@]4(C)CC[C@@H]3[C@@](C)(C2=O)[C@@H](CC(=O)OC)C1(C)C [2'S-METHYLBUTANOYLPROCERANOLIDE] please.
96.7

Quote mortality at 50 µg/mL reported for C=C(C)[C@H]1Cc2c(ccc3c2O[C@@H]2COc4cc(OC)c(OC)cc4[C@@H]2C3=O)O1 [ROTENONE] please.
86.7
